- Assay summary: plasma stability (PS)
- Format: in vitro ADME
- Test context: 60 min
Value type: PS (human) @60 min

Smiles text: Cc1cc(C(=O)Nc2cc(NC(=O)c3cc(N4CCN(C)CC4)cc(C(F)(F)F)c3)ccc2C)no1
Result: > 100%

###

- Measured on: FMS (h) (Homo sapiens, UniProt P07333)
- Construct: purchased Reaction Biology Corp. (Kinase HotSpot service)
- Sequence (P07333 20-972): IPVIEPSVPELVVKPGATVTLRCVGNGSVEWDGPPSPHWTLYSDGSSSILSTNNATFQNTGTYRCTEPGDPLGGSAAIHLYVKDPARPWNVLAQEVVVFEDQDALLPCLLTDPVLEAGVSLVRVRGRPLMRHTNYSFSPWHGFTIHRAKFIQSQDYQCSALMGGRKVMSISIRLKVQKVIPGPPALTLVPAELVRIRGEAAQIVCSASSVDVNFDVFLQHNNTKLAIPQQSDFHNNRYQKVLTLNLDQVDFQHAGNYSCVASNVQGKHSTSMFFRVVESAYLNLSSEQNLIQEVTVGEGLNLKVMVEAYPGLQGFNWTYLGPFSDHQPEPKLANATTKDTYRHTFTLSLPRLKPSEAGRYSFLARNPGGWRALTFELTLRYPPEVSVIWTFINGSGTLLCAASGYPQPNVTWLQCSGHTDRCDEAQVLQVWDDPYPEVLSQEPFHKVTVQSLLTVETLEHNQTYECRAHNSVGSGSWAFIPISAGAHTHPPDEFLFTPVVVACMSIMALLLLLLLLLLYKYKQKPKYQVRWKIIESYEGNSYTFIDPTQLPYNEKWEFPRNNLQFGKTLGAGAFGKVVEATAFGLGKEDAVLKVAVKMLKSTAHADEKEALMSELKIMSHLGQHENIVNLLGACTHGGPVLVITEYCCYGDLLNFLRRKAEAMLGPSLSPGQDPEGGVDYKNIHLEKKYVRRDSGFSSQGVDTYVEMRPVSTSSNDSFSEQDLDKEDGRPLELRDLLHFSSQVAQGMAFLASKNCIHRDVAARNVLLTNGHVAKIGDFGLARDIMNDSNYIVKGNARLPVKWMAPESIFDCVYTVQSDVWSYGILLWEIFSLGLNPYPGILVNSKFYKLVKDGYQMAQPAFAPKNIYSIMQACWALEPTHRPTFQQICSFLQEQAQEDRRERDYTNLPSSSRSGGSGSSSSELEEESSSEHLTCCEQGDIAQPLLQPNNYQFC
- Assay summary: Kinase HotSpot radiometric assay, activity on CSF-1R (FMS)
- Type: biochemical
- Test context: Table 2; read-out: IC50 (μm)
pIC50: −log10 of the molar value.

Molecule: Cc1cc(C(=O)Nc2ccc(C3CC(C)(C)NC(C)(C)C3)cc2C2=CCC(C)CC2)no1 (stereo not shown) [Compound 92b]
pIC50: > 7.00
//
Molecule: Cc1cc(C(=O)Nc2ccc(C3CC(C)(C)NC(C)(C)C3)cc2C2=CCCCCC2)no1 [Compound 92d]
pIC50: 6.00 to 7.00
//
Molecule: Cc1cc(C(=O)Nc2ccc(C3CC(C)(C)NC(C)(C)C3)cc2C2=CCCCC2)no1 [Compound 92a]
pIC50: 6.00 to 7.00
//
Molecule: Cc1cc(C(=O)Nc2ccc(C3CC(C)(C)NC(C)(C)C3)cc2C2=CCC(C)(C)CC2)no1 [Compound 92c]
pIC50: > 7.00
